Biological target: human STAT6/pIL-4Rα (Homo sapiens)
Construct: histidine tag
Sequence (P42226 123-658): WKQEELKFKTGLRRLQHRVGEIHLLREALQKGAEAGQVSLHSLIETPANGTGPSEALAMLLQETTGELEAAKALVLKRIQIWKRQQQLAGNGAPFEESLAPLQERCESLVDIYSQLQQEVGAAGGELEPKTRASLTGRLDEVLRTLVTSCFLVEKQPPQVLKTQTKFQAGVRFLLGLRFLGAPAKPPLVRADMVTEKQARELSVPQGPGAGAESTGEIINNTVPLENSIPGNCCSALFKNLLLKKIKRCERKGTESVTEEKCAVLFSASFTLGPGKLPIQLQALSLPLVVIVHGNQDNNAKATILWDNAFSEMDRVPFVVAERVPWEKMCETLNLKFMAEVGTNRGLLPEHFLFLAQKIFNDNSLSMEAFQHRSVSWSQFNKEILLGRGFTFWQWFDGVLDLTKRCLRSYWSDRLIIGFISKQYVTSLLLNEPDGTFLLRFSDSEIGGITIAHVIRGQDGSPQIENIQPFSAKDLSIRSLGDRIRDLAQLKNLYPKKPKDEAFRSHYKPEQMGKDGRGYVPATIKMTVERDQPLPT
Assay: Binding inhibitory activity between human STAT6/pIL-4Rα by fluorescence polarization method
Settings: rhSTAT6 (123-658) / FAM-pIL-4Rα peptide
Text: Test Example 1: Measurement of Binding Inhibitory Activity Between Human STAT6/pIL-p 4Rα by Fluorescence Polarization Method 1) Construction of Histidine Tag-Fused Recombinant Human STAT6 (123 to 658 Region) […] 2) Measurement of Binding Inhibitory Activity Between Human STAT6/pIL-4Rα by Fluorescence Polarization Method […]
Property Measured: IC50 (µM)
Respond numerically; units are µM and should not be typed.

Solved entries:
CCn1c(-c2ccc(-n3c(C)nn(C)c3=O)cc2)cc2ccnc(C(=O)Nc3ccc(F)c(C(=O)Nc4cncn(C)c4=O)c3)c21 [Ex. 192]
0.34
COCCn1c(-c2ccc(-n3c(C)nn(C)c3=O)cc2)cc2cc(C(F)(F)F)cc(C(=O)Nc3cccc(C(=O)Nc4ccn(CC5CC5)n4)c3)c21 [Ex. 180]
0.3
CNC(=O)c1cccc(NC(=O)c2cc(C(F)(F)F)cc3cc(-c4ccc(-n5cnn(C)c5=O)cc4)n(CCOC)c23)c1 [Ex. 43]
0.25
COCCn1c(-c2ccc(-n3cnn(C)c3=O)cc2)cc2cc(C(F)(F)F)cc(C(=O)Nc3ccc(F)c(C(N)=O)c3)c21 [Ex. 41]
0.28

Query: Which IC50 reading was recorded for the compound CCn1c(-c2ccc(-n3c(C)nn(C)c3=O)cc2)cc2ccnc(C(=O)Nc3ccc(F)c(C(=O)NCC#N)c3)c21 [Ex. 168] ?
Response: 0.35

Query: Which IC50 reading was recorded for the compound CCn1c(-c2ccc(-n3c(C)nn(C)c3=O)cc2F)cc2cc(C(F)(F)F)cc(C(=O)Nc3ccc(F)c(C(N)=O)c3)c21 [Ex. 72] ?
Response: 0.34
